Data provenance: ChEMBL document CHEMBL2331274

Target: Androgen receptor (Mus musculus) (UniProt P19091)
Sequence (P19091 whole entry): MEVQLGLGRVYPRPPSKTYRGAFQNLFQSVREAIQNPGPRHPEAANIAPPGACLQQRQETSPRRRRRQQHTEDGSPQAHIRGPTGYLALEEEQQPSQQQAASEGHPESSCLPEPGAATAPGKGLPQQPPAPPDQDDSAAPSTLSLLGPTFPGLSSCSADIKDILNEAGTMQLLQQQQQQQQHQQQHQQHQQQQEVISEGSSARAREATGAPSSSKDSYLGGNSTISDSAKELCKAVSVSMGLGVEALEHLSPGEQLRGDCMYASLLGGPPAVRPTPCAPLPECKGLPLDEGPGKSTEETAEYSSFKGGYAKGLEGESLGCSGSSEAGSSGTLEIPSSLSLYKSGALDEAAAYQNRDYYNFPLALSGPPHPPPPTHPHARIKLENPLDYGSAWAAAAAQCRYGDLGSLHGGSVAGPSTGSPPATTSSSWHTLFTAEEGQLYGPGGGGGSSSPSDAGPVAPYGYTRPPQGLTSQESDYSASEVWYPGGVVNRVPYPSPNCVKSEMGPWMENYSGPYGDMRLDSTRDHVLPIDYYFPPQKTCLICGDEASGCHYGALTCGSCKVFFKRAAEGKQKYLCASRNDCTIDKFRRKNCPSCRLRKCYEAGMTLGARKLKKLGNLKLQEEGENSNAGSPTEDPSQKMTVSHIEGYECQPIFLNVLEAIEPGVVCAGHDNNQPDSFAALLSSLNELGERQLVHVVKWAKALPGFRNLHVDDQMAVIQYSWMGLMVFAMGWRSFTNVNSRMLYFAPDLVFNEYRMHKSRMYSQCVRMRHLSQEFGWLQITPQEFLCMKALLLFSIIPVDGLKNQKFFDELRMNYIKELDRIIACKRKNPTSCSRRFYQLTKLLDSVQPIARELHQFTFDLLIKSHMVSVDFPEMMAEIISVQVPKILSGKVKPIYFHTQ
Assay: Agonist activity at mouse androgen receptor at 10 uM after 24 hrs by cell-based luciferase reporter gene assay relative to control
Decide by Activity: equal to or exceeding 5% means t, less means f.

- COc1cc2c(cc1OC)CN(c1ccc(C(=O)Nc3ccccn3)cn1)CC2: f
- Cc1ccccc1N(C)C(=O)c1ccc(N2CCc3ccccc3C2)nc1: t
- CCOc1ccc2c(c1OCc1ccccc1)CCN(c1ccc(C(=O)Nc3cccc(C)n3)cn1)C2: f
- COc1ccc2c(c1)CCN(c1ccc(C(=O)Nc3cccc(C)n3)cn1)C2: f
- CCOc1ccc2c(c1)CCN(c1ccc(C(=O)Nc3cccc(OC)c3)cn1)C2: f
- Cc1cccc(NC(=O)c2ccc(N3CCc4cc(OC(C)C)ccc4C3)nc2)n1: f
- CCOc1ccc2c(c1)CCN(c1ccc(C(=O)Nc3cccc(C)n3)cn1)C2: f
- O=C(Nc1nccs1)c1ccc(N2CCc3ccccc3C2)nc1: t
- CCOc1ccc2c(c1OC)CCN(c1ccc(C(=O)Nc3cccc(C)n3)cn1)C2: f
- CCOc1ccc2c(c1OCC)CCN(c1ccc(C(=O)Nc3cccc(C)n3)cn1)C2: f
- COc1cc2c(cc1OC)CN(c1ccc(C(=O)Nc3cccc(C)n3)cn1)CC2: f
- COc1ccccc1N(C)C(=O)c1ccc(N2CCc3ccccc3C2)nc1: t
- O=C(Nc1ccc(F)cc1)c1ccc(N2CCc3ccccc3C2)nc1: t
- COc1cccc(NC(=O)c2ccc(N3CCc4ccccc4C3)nc2)c1: t
- CCOc1ccc2c(c1OCc1ccccc1)CCN(c1ccc(C(=O)Nc3cccc(OC)c3)cn1)C2: f
- CCOc1c(Cl)c(Cl)c2c(c1OCc1ccccc1)CCN(c1ccc(C(=O)Nc3cccc(C)n3)cn1)C2: f
- COc1ccc(CNC(=O)c2ccc(N3CCCCC3)nc2)cc1: t
- COc1cccc(N(C)C(=O)c2ccc(N3CCc4ccccc4C3)nc2)c1: t
- CCOc1c(Cl)c(Cl)c2c(c1OCC)CCN(c1ccc(C(=O)Nc3cccc(C)n3)cn1)C2: f
- Cc1ccnc(N(C)C(=O)c2ccc(N3CCc4ccccc4C3)nc2)c1: t
- COc1ccc(CNC(=O)c2ccc(N3CCc4ccccc4C3)nc2)cc1: t
